Assay: inhibitors of Toxoplasma growth in IFN-γ-primed HeLa – cell-based, ME49Luc, luciferase, 72 h, dose response (AID 1259418)
Settings: T. gondii ME49Luc in IFN-y HeLa, hits give low values, -100% = high-dose IFN-γ control wells; at 19.5 µM unless noted
Among all 3,400 compounds or so, about 840 (25%) were called active. Roughly 11% stayed inconclusive and do not appear here. These entries were drawn from the full list. Entries with a potency or affinity are not part of this list.
The compounds listed here are annotated with their max activity.

Solved entries (count: 6):
CCOc1ccc(-c2nc(CN3CCN(C(=O)Nc4ccccc4C(F)(F)F)CC3)c(C)o2)cc1	13.7% [at 2.6 µM] (inactive)
O=C(NCc1cccnc1)C1CCN(Cc2cc3ccccc3n2Cc2cccc(F)c2)CC1	12.1% [at 0.16 µM] (inactive)
Cc1nc(-c2ccc(F)cc2)sc1-c1ccc(SCc2ccccc2)nn1	20.5% [at 10 µM] (inactive)
O=C(C1CCN(Cc2cc3ccccc3n2Cc2cccc(F)c2)CC1)N1CCCC1	8.62% (inactive)
COCCN1CCc2nc(SCc3nc(-c4ccccc4OC)oc3C)[nH]c(=O)c2C1	14.3% [at 5 µM] (inactive)
COc1ccc(-c2nc(N3CCCc4ccccc43)c3ccccc3n2)cc1	23.2% [at 10 µM] (inactive)

Now turn to the next compound.
What value of measured max activity is listed for COCCN1CCc2nc(SCc3nc(-c4cccc(C)c4)oc3C)[nH]c(=O)c2C1 ?
12% [at 0.16 µM] (inactive)
